Origin of values: a collection of fitness landscapes (doi:10.1126/science.1257360)

B1: PhoQ; a variant is named by its letters at X, in order, P23837 (parent)
chain: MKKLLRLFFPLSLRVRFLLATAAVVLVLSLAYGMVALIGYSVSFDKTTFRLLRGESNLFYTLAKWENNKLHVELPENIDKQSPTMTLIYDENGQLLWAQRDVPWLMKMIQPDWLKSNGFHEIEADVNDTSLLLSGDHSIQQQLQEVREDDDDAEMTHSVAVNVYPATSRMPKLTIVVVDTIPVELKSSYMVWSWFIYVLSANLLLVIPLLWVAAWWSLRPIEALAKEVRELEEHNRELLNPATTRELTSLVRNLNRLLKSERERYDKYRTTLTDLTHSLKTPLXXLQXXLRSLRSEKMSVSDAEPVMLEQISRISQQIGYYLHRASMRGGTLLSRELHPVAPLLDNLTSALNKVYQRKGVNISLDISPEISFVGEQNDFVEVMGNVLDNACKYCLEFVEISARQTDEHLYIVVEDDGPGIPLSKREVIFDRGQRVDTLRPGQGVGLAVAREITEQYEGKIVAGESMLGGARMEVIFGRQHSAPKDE

# Variants of: B1
# assayDetails: enrichment ratio after two sorts for PhoP signalling (ratio (wild type AVST 3.29)); higher = more functional
# experimentalParameters: with PhoP (E. coli)
Whole data set: some 140,000 sequences, median “enrichment ratio after two sorts for PhoP signalling” near 0, cut for the highest 2% near 11. Shown is part of a subset that was picked to be rich in the highest values.
Item-by-item account of enrichment ratio

The examples below pair each entry with its known result.
Q: So what's the measured enrichment ratio for this one? `KYMV`
A: ≤ 0.25

Q: Next entry: `AEYR`
A: ≤ 0.25

Q: Next entry: `RSGP`
A: ≤ 0.25

Q: Next entry: `LSRG`
A: ≤ 0.25

Q: Next entry: `MRAI`
A: ≤ 0.25

Continuing:
Q: So what's the measured enrichment ratio for this one? `ADTF`
A: ≤ 0.25

Q: Next entry: `AENI`
A: ≤ 0.25

Q: Next entry: `IIPR`
A: ≤ 0.25

Q: Next entry: `VGPY`
A: ≤ 0.25

Q: Next entry: `ASHF`
A: ≤ 0.25

Q: Next entry: `SQYM`
A: ≤ 0.25

Q: Next entry: `DVEF`
A: ≤ 0.25

Q: Next entry: `AVHF`
A: ≤ 0.25
